Structures can show the parent of a compound that is named as a salt.
measured.property: pIC50
Here pIC50 is given on a logarithmic scale as minus log10 of the concentration in mol/L.

Field: pIC50 (human histamine H1 receptor (Homo sapiens)). Entry: CCOC(=O)C(C)(C)c1ccc2c(c1)C(=CCCN(C)C)c1sccc1CO2 [Compound 21, hydrochloride]
7.13

Field: pIC50 (human histamine H1 receptor (Homo sapiens)). Entry: CCOC(=O)C(C)(C)c1cc2c(s1)C(=O)Cc1ccccc1C2=CCCN(C)C [Compound 24, hydrochloride]
7.88

Field: pIC50 (human histamine H1 receptor (Homo sapiens)). Entry: O=C(O)Cc1ccc2c(c1)/C(=C\CCN1CCCCC1)c1sccc1CO2
7.50

Field: pIC50 (human histamine H1 receptor (Homo sapiens)). Entry: O=C(O)Cc1ccc2c(c1)/C(=C/CCN1CCCC1)c1sccc1CO2
7.15

Field: pIC50 (human histamine H1 receptor (Homo sapiens)). Entry: CN(C)CC/C=C1/c2cc(CCC(=O)O)ccc2OCc2sccc21.Cl [Compound 57, hydrochloride]
7.25

Field: pIC50 (human histamine H1 receptor (Homo sapiens)). Entry: CCOC(=O)c1ccc2c(c1)C(=CCCN(C)C)c1sccc1CO2 [Compound 3, hydrochloride]
7.65

Field: pIC50 (human histamine H1 receptor (Homo sapiens)). Entry: O=C(O)Cc1ccc2c(c1)/C(=C/CCN1CCN(c3ccccc3)CC1)c1sccc1CO2
7.71

Field: pIC50 (human histamine H1 receptor (Homo sapiens)). Entry: CN(CC/C=C1\c2cc(CC(=O)O)ccc2OCc2ccsc21)Cc1ccccc1
7.72

Field: pIC50 (human histamine H1 receptor (Homo sapiens)). Entry: O=C(O)Cc1ccc2c(c1)/C(=C\CCN1CCCC1)c1sccc1CO2
7.72

Field: pIC50 (human histamine H1 receptor (Homo sapiens)). Entry: CC(C)(C(=O)O)c1cc2c(s1)CCc1ccccc1/C2=C\CCN1CCCC1
7.27

Field: pIC50 (human histamine H1 receptor (Homo sapiens)). Entry: CN(C)CCC=C1c2ccccc2CCc2sc(C(=O)NCCO)cc21 [Compound 9, hydrochloride]
7.25

Field: pIC50 (human histamine H1 receptor (Homo sapiens)). Entry: O=C(O)Cc1ccc2c(c1)C(=CCCN1CCSCC1)c1sccc1CO2
7.34

Field: pIC50 (human histamine H1 receptor (Homo sapiens)). Entry: CN(C)CC/C=C1/c2cc(CC(=O)O)ccc2CCc2ccsc21 [Compound 65, hydrochloride]
7.85

Field: pIC50 (human histamine H1 receptor (Homo sapiens)). Entry: Cl.O=C(O)Cc1ccc2c(c1)/C(=C/CCN1CCCC1)c1sccc1CO2 [Compound 71, hydrochloride]
7.20

Field: pIC50 (human histamine H1 receptor (Homo sapiens)). Entry: O=C(O)CCc1ccc2c(c1)/C(=C\CCN1CCCC1)c1ccsc1CO2
7.64

Field: pIC50 (human histamine H1 receptor (Homo sapiens)). Entry: Cl.O=C(O)Cc1ccc2c(c1)/C(=C\CCN1CCCC1)c1sccc1CO2 [Compound 70, hydrochloride]
7.84

Field: pIC50 (human histamine H1 receptor (Homo sapiens)). Entry: O=C(O)CCc1ccc2c(c1)/C(=C/CCN1CCCC1)c1ccsc1CO2
7.44

Field: pIC50 (human histamine H1 receptor (Homo sapiens)). Entry: O=C(O)Cc1ccc2c(c1)/C(=C\CCN1CCC(N3CCCCC3)CC1)c1sccc1CO2 [Compound 66, diformate]
7.51

Field: pIC50 (human histamine H1 receptor (Homo sapiens)). Entry: CN(C)CC/C=C1\c2cc(CCC(=O)O)ccc2OCc2sccc21 [Compound 56, hydrochloride]
7.54

Field: pIC50 (human histamine H1 receptor (Homo sapiens)). Entry: CCN(C)CC/C=C1\c2cc(CC(=O)O)ccc2OCc2ccsc21
7.24

Field: pIC50 (human histamine H1 receptor (Homo sapiens)). Entry: CCOC(=O)/C=C/c1ccc2c(c1)/C(=C/CCN(C)C)c1sccc1CO2 [Compound 13, hydrochloride]
7.49

Field: pIC50 (human histamine H1 receptor (Homo sapiens)). Entry: O=C(O)Cc1ccc2c(c1)/C(=C\CCNCc1ccccc1)c1sccc1CO2
7.00

###

biological target: cerebral H1 receptor (Mus musculus); construct: The excised brain tissue was homogenized with Polytron (Kinematica); from tissue; host or cells: ICR mouse brain (entire brain except cerebellum and medulla oblongata), homogenate; assay: Murine cerebral H1 receptor occupying content (ex vivo, 3H-pyrilamine binding in brain homogenate after oral administration); conditions: ICR male mouse, oral administration, brain excised after 1 hour; larger ID50 = lower brain transfer; read-out: ID50 (the source's name)
Sequence (P70174 whole entry): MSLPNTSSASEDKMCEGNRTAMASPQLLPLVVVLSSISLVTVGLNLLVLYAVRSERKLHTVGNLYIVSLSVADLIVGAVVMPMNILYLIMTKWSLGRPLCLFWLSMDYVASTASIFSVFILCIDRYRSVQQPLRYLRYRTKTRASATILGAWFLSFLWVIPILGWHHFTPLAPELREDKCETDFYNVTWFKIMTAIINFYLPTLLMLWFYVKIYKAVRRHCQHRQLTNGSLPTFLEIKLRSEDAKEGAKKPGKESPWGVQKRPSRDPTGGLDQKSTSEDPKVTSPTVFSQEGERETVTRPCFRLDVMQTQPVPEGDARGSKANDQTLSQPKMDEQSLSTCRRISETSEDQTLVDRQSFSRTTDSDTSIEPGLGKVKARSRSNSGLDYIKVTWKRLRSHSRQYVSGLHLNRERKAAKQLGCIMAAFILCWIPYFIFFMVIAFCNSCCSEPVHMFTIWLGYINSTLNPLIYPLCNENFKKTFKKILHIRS
measured.property: ED50

ED50 lookup needed for O=C(O)Cc1ccc2c(c1)/C(=C/CCNCc1ccccc1)c1sccc1CO2 [Compound 43] , thanks.
> 80 mg/kg

ED50 lookup needed for CN1CCN(CC/C=C2\c3cc(CC(=O)O)ccc3OCc3ccsc32)CC1 [Compound 50] , thanks.
> 80 mg/kg

ED50 lookup needed for O=C(O)CCc1ccc2c(c1)/C(=C/CCN1CCCC1)c1ccsc1CO2 [Compound 59] , thanks.
> 200 mg/kg
